Data provenance is patent US20150086555A1.

Target: recombinant homotrimeric HA A/duck/Yangzhou/02/05 H8N4 (Influenza A virus A/duck/Yangzhou/02/2005(H8N4))
Test: protein microarray, purified IgG, trimeric HA
Settings: remark: other sources report otherwise
reported.endpoint: Trimeric HA Binding: RLU (RLU)

>  <binder>
TCN-555 (5246_L16) (antibody, V domains shown) VH: QVQLVQSGAEVKRPGSSVKVSCTASGGIFRKNAISWVRQAPGQGLEWMGGIIAVFNTANYAQKFQNRVKITADESGNTAYMELSSLTSDDTAVYYCASHPKYFYGSGSYPDFWGQGTLVTVSS VL: QSALTQPRSVSGSPGQSITISCTGGSSDIGASNSVSWYQQHPGKAPKLVIFDVTERPSGVPHRFSGSKSGNTASLTVSGLQPDDEADYFCCAYGGKYLVVFGGGTKVTVL

>  <units.symbol>
RLU

>  <measured.result>
375

$$$$
>  <binder>
TCN-528 (5087_P17) (antibody, V domains shown) VH: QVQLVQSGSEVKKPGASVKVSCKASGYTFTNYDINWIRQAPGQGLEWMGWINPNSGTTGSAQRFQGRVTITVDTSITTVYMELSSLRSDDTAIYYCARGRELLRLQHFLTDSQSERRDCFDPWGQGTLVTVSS VL: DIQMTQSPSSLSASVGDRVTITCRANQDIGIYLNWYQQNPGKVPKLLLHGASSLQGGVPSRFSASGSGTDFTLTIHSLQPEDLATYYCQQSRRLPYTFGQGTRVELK

>  <units.symbol>
RLU

>  <measured.result>
24100

$$$$
>  <binder>
TCN-541 (5062_M11) (antibody, V domains shown) VH: QVQLQESGPGLVKPSETLSLTCTVSGGSINSYYWNWIRQPPGKGLEWIGYIYHSGSTNYNPSLKSRVTISVDTSKNQFSLQLSSVTAADTAVYYCARLRTDYGDPDSVYYYGMDVWGQGTTVTVSS VL: SYELTQPPSVSVSPGQTARITCSGDALPKQNAYWYQQKPGQAPVLLIYKDSERPSGIPERFSGSSSGTTVTLTISGVQAEDEADYYCQSADSSGTSWVFGGGTKLTVL

>  <units.symbol>
RLU

>  <measured.result>
352

$$$$
>  <binder>
TCN-542 (5079_A16) (antibody, V domains shown) VH: QVQLQESGPGLVKPSQTLSLTCTVSGGSISSGNYYWNWVRQHPGKGLEWIGYIYYRGSTFYNPSLKSRVTISIDTSKNQFSLRLSSVTAADTAVYYCAKDTRSSLDNYQYGMDVWGQGTTVTVSS VL: QTVVTQEPSLTVSPGGTVTLTCASSTGAVTSSYFPNWFQQKPGQAPRPLIYSTTIRHSWTPARFSGSLLGGKAALTLSGVQPEDEADYYCLLYSGGDPVAFGGGTKLTVL

>  <units.symbol>
RLU

>  <measured.result>
182

$$$$
>  <binder>
TCN-527 (5086_C06) (antibody, V domains shown) VH: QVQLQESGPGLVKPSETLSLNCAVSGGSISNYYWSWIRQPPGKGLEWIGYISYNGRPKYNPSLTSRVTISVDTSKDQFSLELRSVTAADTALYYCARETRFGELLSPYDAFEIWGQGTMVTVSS VL: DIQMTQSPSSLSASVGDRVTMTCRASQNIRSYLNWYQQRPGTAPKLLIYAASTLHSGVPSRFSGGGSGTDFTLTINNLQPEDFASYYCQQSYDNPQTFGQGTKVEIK

>  <units.symbol>
RLU

>  <measured.result>
26000

$$$$
